Provenance of the data: the supplement of paper PMC6555819

Give PBM binding z-score for every item shown.
Tested on: RARg homodimer (NR concentration 270 nM)
method-notes: PBM binding z-score (relative to random genomic background probes); higher = stronger binding; sequences stand for … in GC…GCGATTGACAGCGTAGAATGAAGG
The reply should be a number, written without any unit.

PBM binding z-score reading for `TCGAGTAGGTCACGGGGGCATTCAGGGATGAAGA` : 6.69

PBM binding z-score reading for `CGTCAAAGGTCAACTAAGGTAACGTAAAGCACGC` : 9.23

PBM binding z-score reading for `ACTTACGGCTCAACGAGGTTATAGCACGCGTATA` : 0.49

PBM binding z-score reading for `AGAATGAGGTCATACGTAGATCAGGGAAGAAAGT` : 5.97

PBM binding z-score reading for `CAGCATAGGTCAGGGCCAGTATAGGAGGAACGTT` : 4.39

PBM binding z-score reading for `CAAACAAGGTCACGAAAGGTCAAAGTCGAATGAC` : 9.5

---

Give PBM binding z-score for every item shown.
System: LXRb:RXRa (NR concentration 270 nM, RXRa partner concentration 90 nM)
method-notes: PBM binding z-score (relative to random genomic background probes); higher = stronger binding; sequences stand for … in GC…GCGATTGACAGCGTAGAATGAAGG
The reply should be a number, written without any unit.

PBM binding z-score reading for `ACTTACGGGTCTACGAGGTTATAGCACGCGTATA` : 0.819

PBM binding z-score reading for `GATACAGGGTCAAGGTCAGAGTACGCGTATTGAT` : 4.85

PBM binding z-score reading for `AGTCAAAGTTTATCTAGGTAACGTAAGATATGCT` : 0.175

PBM binding z-score reading for `TCTAGTCGGTCAAAGGTCACACACTCGAAATGCG` : 5.97

PBM binding z-score reading for `GCTGCTAGGTCAACTGATGGTCAACTAAAGCTCG` : 2.47

PBM binding z-score reading for `CGTCAAAGTTCAACTGAGGTAACGTAAAGCACGC` : 4.09

PBM binding z-score reading for `ATCGAAAGGTCGACCAGGTGAGTATACACCGTTT` : 3.1

PBM binding z-score reading for `CCTAGTTGGTCAAGGTCACATACGCTATAGGTAC` : 3.56

PBM binding z-score reading for `CGAACAAGGTCATTGACAGGACAGTGAATAGTAA` : 4.62

PBM binding z-score reading for `CGAACTAGGTCGCCAGGACAGTGAAGAGGTTGGA` : -0.222

PBM binding z-score reading for `GCATATAGGTAATACAAGGTCAAAGTCCGATTGT` : 5.63

PBM binding z-score reading for `ATATGTAGTTTATCGGGTCATTCAGTTTGCGCAT` : 2.94

---

System: RARg:RXRa (NR concentration 270 nM, RXRa partner concentration 90 nM)
method-notes: PBM binding z-score (relative to random genomic background probes); higher = stronger binding; sequences stand for … in GC…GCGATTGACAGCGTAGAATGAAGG
Is PBM binding z-score at least 4? Then Criterion met. If not, Criterion not met.

Hello, I need to know if `AGCGAAAGGTCGAGGTGAGTATAGAGAAAGGGAA` has measured PBM binding z-score not below 4. Thanks! Criterion met

Hello, I need to know if `CGAACGAGGTCACCAGGACAGTGAAGAGGTTGGA` has measured PBM binding z-score not below 4. Thanks! Criterion met

Hello, I need to know if `CCTAGTTGGTCAAGGTCACACCCGCTATAGGTAC` has measured PBM binding z-score not below 4. Thanks! Criterion met

Hello, I need to know if `ATCGAAAGGTCCACGAGGTGAGTATACACCGTTT` has measured PBM binding z-score not below 4. Thanks! Criterion not met

Hello, I need to know if `TTGCCTAGGTCATTGGGCCAGTATAGTACGCATC` has measured PBM binding z-score not below 4. Thanks! Criterion not met

Hello, I need to know if `ACTTAAGGGTCAACGAGGTTATAGCACGCGTATA` has measured PBM binding z-score not below 4. Thanks! Criterion met
